Source listed as ChEMBL document CHEMBL6071126.

- System: MCF7
- test description: Cytotoxicity against human MCF7 cells assessed as reduction in cell viability incubated for 72 hrs by MTT assay
- measurement conditions: MCF7, 72 h
pIC50: −log10 of the molar value.
property label: pIC50

| compound smiles | property label | value observed |
| --- | --- | --- |
| O=c1[nH]cc(F)c(=O)[nH]1 | pIC50 | > 6.00 |

====

- test description: Apparent permeability across apical to basolateral side in human Caco-2 cells at 10 uM incubated for 90 mins at pH 7.4 by LC/MS analysis
- Assay type: ADME, cell-based
- measurement conditions: Caco-2, pH 7.4

| compound smiles | Papp A→B at 1.5 h, 10 µM |
| --- | --- |
| CC1(C)CC[C@]2(C(=O)O)CC[C@]3(C)C(=CC[C@@H]4[C@@]5(C)CC[C@H](O)C(C)(C)[C@@H]5CC[C@]43C)[C@@H]2C1 | 1.1 ×10⁻⁶ cm/s |

====

- test description: Aqueous solubility of compound
- Assay type: physicochemical

| compound smiles | solubility |
| --- | --- |
| CC1(C)CC[C@]2(C(=O)O)CC[C@]3(C)C(=CC[C@@H]4[C@@]5(C)CC[C@H](O)C(C)(C)[C@@H]5CC[C@]43C)[C@@H]2C1 | < 1 µg/mL |
